Assay: Primary qHTS for inhibitors of nuclear receptor binding SET domain protein 2 (NSD2) in an RCH-ACV wild type WT cells (2C) (AID 1645877); note: nearly all actives have a fitted effect of over 70% in size
Conditions: RCH-ACV (leukaemia line) NSD2 WT (2C) viability, CellTiter-Glo, 72 h; series mostly up to 44.9 µM
Inconclusive results are not listed. Calls of active or inactive are those of the source. Calls come from the whole dose curve; as a rule, active = well fitted inhibition curve with a large enough effect; inconclusive = small, poorly fitted or top-dose-only effect; inactive = no such curve, though single readings can be large or run the other way.
Write down the outcome that applies. Available outcomes: active, inactive

Could you please tell me the result logged for `CC(=O)OC[C@]12[C@H](OC(C)=O)C(=O)[C@@H]3[C@@H](OC(C)=O)[C@@]14O[C@@]3(C)COC(=O)c1cccnc1[C@@H](C)[C@H](C)C(=O)O[C@@H]([C@H](O)[C@@H]2OC(C)=O)[C@]4(C)O` in this assay?
inactive

Could you please tell me the result logged for `CCn1cc(NC(=S)Nc2cc(Cl)ccc2OC)c(C(N)=O)n1` in this assay?
inactive

Could you please tell me the result logged for `Cn1cc(S(=O)(=O)c2ccc(Cl)cc2)c2cccc(N3CCNCC3)c21` in this assay?
active

Could you please tell me the result logged for CC1C(=O)OCC2=CCN3CCC(OC(=O)C(C)(O)C1(C)O)C23 (stereo not given) in this assay?
inactive

Could you please tell me the result logged for `COC(=O)c1ccnc(-c2cc(C(=O)NCCc3ccccc3)ccn2)c1` in this assay?
inactive

###

Test system: HEK293
Assay: Cytotoxic Profiling of Annotated Libraries Using Quantitative High-Throughput Screening (AID 1296008); note: nearly all actives have a fitted effect of over 60% in size; note: potency is the fitted concentration of half-maximal effect
Conditions: Five cell lines viability, CellTiter-Glo ATP luminescence, 48-72 h
Results filed as inconclusive are left out. Activity calls are given as the source filed them. Calls follow the shape of the dose curve; as a rule, active = well fitted inhibition curve with a large enough effect; inconclusive = small, poorly fitted or top-dose-only effect; inactive = flat fitted curve, though single readings scatter.
Record form. Attribute: Potency. Fill in for each entry.

Endpoint output: Potency of `Cn1cc(S(=O)(=O)c2ccc(Cl)cc2)c2cccc(N3CCNCC3)c21` . Value?
6.51 µM (active)

Endpoint output: Potency of `CCN(CC)Cc1ccc(C(=O)N(CCc2ccccc2OC)[C@@H]2CCNC2)cc1` . Value?
5.63 µM (active)

Endpoint output: Potency of `Cc1cccc(/C=N/Nc2cc(N3CCOCC3)n3nc(-c4ccncc4)cc3n2)c1` . Value?
5.8 µM (active)

Endpoint output: Potency of `C=CC(=O)Nc1cccc(CN2C(=O)N(c3c(Cl)c(OC)cc(OC)c3Cl)Cc3cnc(NCCCCN(CC)CC)nc32)c1` . Value?
16.4 µM (active)

Endpoint output: Potency of CNC(C)C(=O)NC(C(=O)N1CCCC1c1nc(C(=O)c2ccc(F)cc2)cs1)C1CCCCC1 (stereo not given) . Value?
14.6 µM (active)

###

Tested on: CRL-7250
Assay: Cytotoxic Profiling of Annotated Libraries Using Quantitative High-Throughput Screening (AID 1296008); note: nearly all actives have a fitted effect of over 60% in size
Conditions: Five cell lines viability, CellTiter-Glo ATP luminescence, 48-72 h
Records with an inconclusive call do not appear. Activity calls are given as the source filed them. The call rests on the fitted dose curve; in most records, active means well fitted inhibition curve with a large enough effect; inconclusive means small, poorly fitted or top-dose-only effect; inactive means flat fitted curve, though single readings scatter.
Write down the outcome that applies. Available outcomes: T for active, F for inactive

Could you please tell me the result logged for `COc1cc2c(cc1OC)-c1[nH]nc(Nc3cccc(F)c3)c1C2` in this assay?
T

Could you please tell me the result logged for C[C@@H]1CCC2C(C)(C)[C@H](O)CC[C@]2(C)[C@@]12Cc1c(O)cc3c(c1O2)CN([C@@H](CCC(=O)O)C(=O)O)C3=O (some centres undefined) in this assay?
F

Could you please tell me the result logged for COc1cc(C(=O)O)ccc1OC1OC(CO)C(O)C(O)C1O (centres undefined) in this assay?
F

Could you please tell me the result logged for `OC/C=C/C=C/[C@H]1Cc2cc(O)cc(O)c2O1` in this assay?
F

Could you please tell me the result logged for `CC/C=C\CCO[C@@H]1O[C@H](CO[C@@H]2OC[C@H](O)[C@H](O)[C@H]2O)[C@@H](O)[C@H](O)[C@H]1O` in this assay?
F

Could you please tell me the result logged for CC(=O)C=C=C1C(C)(C)CC(O[C@@H]2O[C@H](CO)[C@@H](O)[C@H](O)[C@H]2O)CC1(C)O (some centres undefined) in this assay?
F

Could you please tell me the result logged for `C[C@H](C(=O)NC1CCCC1)N(C(=O)Cn1nnc(-c2ccc3c(c2)OCO3)n1)C1CCCCC1` in this assay?
F

Could you please tell me the result logged for `CCc1ccc(Cc2ccc3c(c2)[C@]2(OC3)O[C@H](CO)[C@@H](O)[C@H](O)[C@H]2O)cc1` in this assay?
F

Could you please tell me the result logged for CC1(C)CCCC2(C)C=C(C(=O)O)C(O)CC12 (centres undefined) in this assay?
F
